test: The compound was evaluated for the inhibitory activity against human thrombin
pKi: −log10 of the molar value.
QUANTITY: pKi

INSERT INTO assay_data (compound, experimental_result) VALUES
  ('CC1(C)CNc2c(cccc2S(=O)(=O)NC(CCCNC(=N)N)C(=O)N2CCC(CCO)CC2)C1 (stereo unspecified)', 7.49);
